assay: Size distribution, polydispersity and Z-potential of LNPs by dynamic light scattering (Malvern Zetasizer); type: physicochemical; settings: LNPs, standard formulation 50:10:38.5:1.5; DLS
property measured: Particle size/ Ø (nm)
Express it in nm; write the number only.

Previously resolved entries follow.
compound | Particle size/ Ø (nm)
CCCCCCCCCCCCCOC(=O)CCSCCC(NC(=O)C(CCCCCC)CCCCCCCC)C(=O)NCCN(CC)CC (stereo not drawn) [VC-LC-0473] | 134.0
CCCCCCCCCCCCCCCCCCOC(=O)CCSCCC(C(=O)NCCCn1ccnc1)C(=O)OC(CCCCCCCC)CCCCCCCC (stereo not drawn) [VC-LC-0368] | 140.9
CCCCCCCCCCCCCCOC(=O)CCSCCC(C(=O)NCCCN1CCOCC1)C(=O)OCC(CCCCCC)CCCCCCCC (stereo not drawn) [VC-LC-0610] | 168.1
CCCCCCCCCCC(CCCCCCCC)C(=O)NC(CCSCCC(=O)OCCCCCCCC(C)C)C(=O)NC1CCN(C)CC1 (stereo not drawn) [VC-LC-0558] | 155.2
CCCCCCCCC(CCCCCC)C(=O)NC(CCSCCC(=O)OCCCCCC(C)C)C(=O)NCCCN1CCOCC1 (stereo not drawn) [VC-LC-0171] | 228.8

Short answer for CCCCCCCCCCCCCCCCCC(=O)NC(CCSCCC(=O)OCC(CCCCCC)CCCCCCCC)C(=O)NC1CCN(C)CC1 (stereo not drawn) [VC-LC-0433] : Particle size/ Ø (nm) was 180.8

CCCCCCCCCCCCCOC(=O)CCSCC(CC(=O)NCCCN1CCOCC1)C(=O)OC(CCCCCCCC)CCCCCCCC (stereo not drawn) [VC-LC-0540] has a reported Particle size/ Ø (nm) of 140.3

Kindly note the recorded Particle size/ Ø (nm) for CCCCCCCCCCCCCCCCOC(=O)CCSCC(CC(=O)NCCCN1CCOCC1)C(=O)OC(CCCCCCCC)CCCCCCCC (stereo not drawn) [VC-LC-0547] , which is 168

The compound listed as CCCCCCCCCCCCCCOC(=O)CCSCCC(NC(=O)C(CCCCCCCC)CCCCCCCCCC)C(=O)NCCCN1CCOCC1 (stereo not drawn) [VC-LC-0577] has a reported Particle size/ Ø (nm) of 182.2

The reported value for CCCCCCCC/C=C\CCCCCCCC(=O)NC(CCSCCC(=O)OCCCCCCCCCCCCC)C(=O)NC1CCN(C)CC1 (stereo not drawn) [VC-LC-0322] in terms of Particle size/ Ø (nm) is 220.5

Noted for CCCCCCCCCCCCCCCCCCOC(=O)CCSCCC(NC(=O)C(CCCCCC)CCCCCCCC)C(=O)NCCCn1ccnc1 (stereo not drawn) [VC-LC-0262] : its Particle size/ Ø (nm) reads 143.8

###

Readings of Particle size/ Ø (nm) for the listed compounds
assay: Size distribution, polydispersity and Z-potential of LNPs by dynamic light scattering (Malvern Zetasizer); assay type: physicochemical; details: LNPs, standard formulation 50:10:38.5:1.5; DLS
Respond numerically; units are nm and should not be typed.

Field: example entries. Status: answers known.
compound | Particle size/ Ø (nm)
CCCCCCCC/C=C\CCCCCCCC(=O)NC(CCSCCC(=O)OCC(CCCCCCCCCC)CCCCCCCCCCCC)C(=O)NC1CCN(C)CC1 (centres unmarked) | 218.9
CCCCCCCC/C=C\CCCCCCCCOC(=O)CCSCC(CC(=O)NC1CCN(C)CC1)C(=O)OCC(CCCCCC)CCCCCCCC (centres unmarked) | 176.7
CCCCCCCCC(CCCCCC)COC(=O)CCSCC(CC(=O)NC1CCN(C)CC1)C(=O)OCC(CCCCCC)CCCCCCCC (centres unmarked) | 151
CCCCCCCCOC(=O)CCSCC(CC(=O)NC1CCN(C)CC1)C(=O)OCC(CCCCCC)CCCCCCCC (centres unmarked) | 144.7
CCCCCCCCCCCCC(CCCCCCCCCC)COC(=O)CCSCCC(NC(=O)C(CCCCCCCC)CCCCCCCCCC)C(=O)NCC1CCN(C)CC1 (centres unmarked) | 153.1

Input CCCCCCCCCCCCC(CCCCCCCCCC)COC(=O)CCSCCC(NC(=O)C(CCCCCC)CCCCCCCC)C(=O)NCCN1CCOCC1 (centres unmarked) . Output Particle size/ Ø (nm): 167.1

According to the records, this compound CCCCCCCCOC(=O)CCSCCC(NC(=O)C(CCCCCC)CCCCCCCC)C(=O)NCCCn1ccnc1 (centres unmarked) displays Particle size/ Ø (nm) of 176.7

Lab book: Particle size/ Ø (nm) of CCCCCCCCCCCCCOC(=O)CCSCCC(NC(=O)C(CCCCCCCC)CCCCCCCCCC)C(=O)NCC1CCN(C)CC1 (centres unmarked) noted as 151.1

Measured Particle size/ Ø (nm), CCCCCCCCCCCCCCCCOC(=O)CCSCCC(NC(=O)C(CCCCCC)CCCCCCCC)C(=O)NCCN(CC)CC (centres unmarked) : 154.5

Please fill in: Particle size/ Ø (nm) reported for CCCCCCCCCCCCCCOC(=O)CCSCC(CC(=O)NCCCn1ccnc1)C(=O)OC(CCCCCCCC)CCCCCCCC (centres unmarked) = 193.3

Just so you know, measured Particle size/ Ø (nm) for CCCCCCCCCCCCCCCCCCOC(=O)CCSCC(CC(=O)NCCCn1ccnc1)C(=O)OC(CCCCCCCC)CCCCCCCC (centres unmarked) came out at 156.9

Reported Particle size/ Ø (nm) for CCCCCCCCC(CCCCCC)COC(=O)CCSCCC(NC(=O)C(CCCCCC)CCCCCCCC)C(=O)NC1CCN(C)CC1 (centres unmarked) was 196.6

Entry CCCCCCCCCCCCOC(=O)CCSCCC(C(=O)NCCCn1ccnc1)C(=O)OC(CCCCCCCC)CCCCCCCC (centres unmarked) ; Particle size/ Ø (nm) = 122.6

Summary for this compound, CCCCCCCCC(CCCCCC)C(=O)NC(CCSCCC(=O)OCCCCCCC)C(=O)NCCCN(CCO)CCO (centres unmarked) : Particle size/ Ø (nm) is 185.7

###

experiment: Size distribution, polydispersity and Z-potential of LNPs by dynamic light scattering (Malvern Zetasizer); type: physicochemical; conditions: LNPs, standard formulation 50:10:38.5:1.5; DLS
Entries annotated with measured Z Potential (± D.E.) [mV]
Supply the numeric figure in mV, leaving out any unit text.

Some solved cases for reference:
compound | Z Potential (± D.E.) [mV], mV
CCCCCCCC/C=C\CCCCCCCC(=O)NC(CCSCCC(=O)OCC(CCCCCCCCCC)CCCCCCCCCCCC)C(=O)NCCCN1CCOCC1 (stereo not shown) [VC-LC-0353] | -8.97
CCCCCCCCC(CCCCCC)C(=O)NC(CCSCCC(=O)OCCCCCC)C(=O)NCCCn1ccnc1 (stereo not shown) [VC-LC-0268] | -10.85
CCCCCCCC#CCOC(=O)CCSCCC(NC(=O)CCCCCCCCCCCCCCCCC)C(=O)NCCCN1CCOCC1 (stereo not shown) [VC-LC-0390] | -1.14

// field: Z Potential (± D.E.) [mV]; key: CCCCCCCCOC(=O)CCSCCC(NC(=O)C(CCCCCC)CCCCCCCC)C(=O)NCCCN1CCOCC1 (stereo not shown) [VC-LC-0176] ; value = -17.58

###

experiment: Size distribution, polydispersity and Z-potential of LNPs by dynamic light scattering (Malvern Zetasizer); assay type: physicochemical; details: LNPs, standard formulation 50:10:38.5:1.5; DLS
property measured: P.D.I.
// response body must contain only the number

Take a look at these entries with their results.
compound | test result
CCCCCCCC#CCOC(=O)CCSCC(CC(=O)NC1CCN(C)CC1)C(=O)OCC(CCCCCC)CCCCCCCC (stereo not shown) | 0.16
CCCCCCCCCCCCCCCCCCOC(=O)CCSCC(CC(=O)NCCCn1ccnc1)C(=O)OC(CCCCCCCC)CCCCCCCC (stereo not shown) | 0.17
CCCCCCCC/C=C\CCCCCCCC(=O)NC(CCSCCC(=O)OCCCCCC(C)C)C(=O)NCCCN(CCO)CCO (stereo not shown) | 0.13

Shifting focus to the compound that follows.
Data point: CCCCCCCC/C=C\CCCCCCCCOC(=O)CCSCCC(NC(=O)C(CCCCCCCC)CCCCCCCCCC)C(=O)NCC1CCN(C)CC1 (stereo not shown) ; P.D.I. = 0.17

###

assay: Size distribution, polydispersity and Z-potential of LNPs by dynamic light scattering (Malvern Zetasizer); type: physicochemical; settings: LNPs, standard formulation 50:10:38.5:1.5; DLS
property measured: Z Potential (± D.E.) [mV] (mV)
# number only, unit mV dropped from output

Reference set, count: 5
compound | property measured | test result
CCCCCCCCCCCCCCCCOC(=O)CCSCCC(NC(=O)C(CCCCCC)CCCCCCCC)C(=O)NCCCN1CCCC1 (centres unmarked) | Z Potential (± D.E.) [mV] | 4.52
CCCCCCCCC(CCCCCC)COC(=O)CCSCCC(NC(=O)C(CCCCCC)CCCCCCCC)C(=O)NCC1CCN(C)CC1 (centres unmarked) | Z Potential (± D.E.) [mV] | -3.40
CCCCCCCCCCCCOC(=O)CCSCCC(NC(=O)C(CCCCCC)CCCCCCCC)C(=O)NCCCn1ccnc1 (centres unmarked) | Z Potential (± D.E.) [mV] | -17.24
CCCCCCCCC(CCCCCC)COC(=O)CCSCC(CC(=O)NCCCN1CCOCC1)C(=O)OC(CCCCCCCC)CCCCCCCC (centres unmarked) | Z Potential (± D.E.) [mV] | -6.83
CCCCCCCCCCC(CCCCCCCC)C(=O)NC(CCSCCC(=O)OCC(CCCCCC)CCCCCCCC)C(=O)NC1CCN(C)CC1 (centres unmarked) | Z Potential (± D.E.) [mV] | -6.12

Form field Z Potential (± D.E.) [mV], entry CCCCCCCCCCCCCCCCCCCCCCOC(=O)CCSCC(CC(=O)NCCCN1CCOCC1)C(=O)OC(CCCCCCCC)CCCCCCCC (centres unmarked) : -16.95

Per the records, this compound ( CCCCCCCCC(CCCCCC)C(=O)NC(CCSCCC(=O)OCC(CC)CCCC)C(=O)NCCCn1ccnc1 (centres unmarked) ) has Z Potential (± D.E.) [mV] equal to -8.47

Sample CCCCCCCC/C=C\CCCCCCCC(=O)NC(CCSCCC(=O)OCCCCCC(C)C)C(=O)NCCCN(CCO)CCO (centres unmarked) ; Z Potential (± D.E.) [mV] observed: 12.29

compound CCCCCCCC/C=C\CCCCCCCC(=O)NC(CCSCCC(=O)OCCCCCCCCCCCCC)C(=O)NCCCN(CCO)CCO (centres unmarked) , Z Potential (± D.E.) [mV] observed: -0.34

Briefly, Z Potential (± D.E.) [mV] measured for CCCCCCCCCCCCCCCCOC(=O)CCSCC(CC(=O)NC1CCN(C)CC1)C(=O)OCC(CCCCCC)CCCCCCCC (centres unmarked) : 9.15

The compound CCCCCCCCCCCCCCCCCCCCCCOC(=O)CCSCC(CC(=O)NC1CCN(C)CC1)C(=O)OCC(CCCCCC)CCCCCCCC (centres unmarked) showed Z Potential (± D.E.) [mV] equal to 5.74

Value of Z Potential (± D.E.) [mV] reported for the compound CCCCCCCCCCCCCCCCOC(=O)CCSCCC(NC(=O)C(CCCCCC)CCCCCCCC)C(=O)NCCCN(CCO)CCO (centres unmarked) is 2.80

response.value for CCCCCCCCCCCCCCOC(=O)CCSCCC(NC(=O)C(CCCCCCCC)CCCCCCCCCC)C(=O)NCCCN1CCOCC1 (centres unmarked) (field: Z Potential (± D.E.) [mV]) = -15.06

Per the record, CCCCCCCCCCC(CCCCCCCC)C(=O)NC(CCSCCC(=O)OCCCCCC(C)C)C(=O)NCC1CCN(C)CC1 (centres unmarked) has Z Potential (± D.E.) [mV] of 1.90
